Values from paper PMC7588595

# assayed.target: human AspH (His6-AspH315–758) (Homo sapiens, UniProt Q12797)
# Construct: N-Terminally His6-tagged human AspH315–758 (His6-AspH315–758) was produced in Escherichia coli BL21 (DE3) cells; made in house; host or cells: Escherichia coli BL21 (DE3), pET-28a(+) vector
# Sequence (Q12797 315-758): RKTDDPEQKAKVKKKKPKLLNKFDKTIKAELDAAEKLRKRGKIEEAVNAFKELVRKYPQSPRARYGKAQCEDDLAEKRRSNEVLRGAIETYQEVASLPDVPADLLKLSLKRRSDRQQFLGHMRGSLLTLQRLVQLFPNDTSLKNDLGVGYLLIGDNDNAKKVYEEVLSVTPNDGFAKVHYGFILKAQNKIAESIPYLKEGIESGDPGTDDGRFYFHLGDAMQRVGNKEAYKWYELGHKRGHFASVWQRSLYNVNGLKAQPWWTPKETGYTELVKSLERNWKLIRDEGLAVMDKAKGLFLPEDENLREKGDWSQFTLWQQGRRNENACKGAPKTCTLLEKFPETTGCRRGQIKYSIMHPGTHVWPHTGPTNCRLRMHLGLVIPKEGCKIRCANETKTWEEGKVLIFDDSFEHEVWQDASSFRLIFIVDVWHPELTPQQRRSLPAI
# test.summary: SPE-MS AspH inhibition assay (hFX-CP101-119 substrate hydroxylation)
# Type: biochemical
# run.parameters: AspH-inhibitor screening, 384-well Plate 1
Structures can show the parent of a compound that is named as a salt.
metric: Plate 1 (% inhibition) (%)
Provide only the numeric value, understood in %.

compound	metric	value.unit	measured.result
CC(=O)O[C@H]1C(=O)[C@@]2(C)[C@H]([C@H](OC(=O)c3ccccc3)[C@]3(O)C[C@H](OC(=O)[C@H](O)[C@@H](NC(=O)c4ccccc4)c4ccccc4)C(C)=C1C3(C)C)[C@]1(OC(C)=O)CO[C@@H]1C[C@@H]2O [Paclitaxel]	Plate 1 (% inhibition)	%	6.60

Sure, the documented Plate 1 (% inhibition) for Nc1ncn([C@@H]2O[C@H](CO)[C@@H](O)[C@H]2O)c(=O)n1 [Azacitidine] is 17.64

For this compound ( NC(=O)NO [Hydroxyurea] ), measured Plate 1 (% inhibition) is 16.85

Quick note, Plate 1 (% inhibition) for O=C(Nc1ccncc1)C(=O)c1cn(Cc2ccc(Cl)cc2)c2ccccc12 [Indibulin] landed at 45.36

# compound CC/C(=C(\c1ccccc1)c1ccc(OCCN(C)C)cc1)c1ccccc1 [Tamoxifen citrate] ; its Plate 1 (% inhibition) = 67.86

Form: compound = CC(C)C[C@H](NC(=O)CNC(=O)c1cc(Cl)ccc1Cl)B1OC(=O)C(CC(=O)O)(CC(=O)O)O1 [Ixazomib citrate] ; Plate 1 (% inhibition) = 72.42

# compound COc1cc2c(cc1O)CC[C@@H]1[C@@H]2CC[C@]2(C)[C@@H](O)CC[C@@H]12 [2-methoxyestradiol (Panzem)] ; its Plate 1 (% inhibition) = 5.63

The compound listed as CC1(COc2ccc3c(c2)ncn3-c2ccc3cccc(N4CCC(N)CC4)c3n2)COC1 [Crenolanib] shows Plate 1 (% inhibition) equal to -2.58

* * *

# assayed.target: human AspH (His6-AspH315–758) (Homo sapiens)
# Construct: N-Terminally His6-tagged human AspH315–758 (His6-AspH315–758) was produced in Escherichia coli BL21 (DE3) cells; made in house; host or cells: Escherichia coli BL21 (DE3), pET-28a(+) vector
# test.summary: SPE-MS AspH inhibition assay (hFX-CP101-119 substrate hydroxylation)
# Format: biochemical
# run.parameters: AspH-inhibitor screening, Plate 1-duplicate
Parameter: Plate 1-duplicate (% inhibition). Scope: all listed entries.
Give just the numeric value; % need not be written.

Solved entries:
compound	Plate 1-duplicate (% inhibition) / %
CCS(=O)(=O)c1cccc(-c2cc(C(=O)NC3CCN(C)CC3)c(C)c3[nH]c4ncc(C)cc4c23)c1 [TAK-901]	-23.07
O=C(Nc1cccnc1)N1CCC(Cc2cccc(Oc3ccc(C(F)(F)F)cn3)c2)CC1 [PF-3845]	-12.27
Cl.O=C(/C=C/c1cccnc1)NCCCCC1CCN(C(=O)c2ccccc2)CC1 [FK-866 HCl_Daporinad]	-6.78
C#CCC(Cc1cnc2nc(N)nc(N)c2n1)c1ccc(C(=O)N[C@@H](CCC(=O)O)C(=O)O)cc1 (stereo partly drawn) [Pralatrexate]	14.13
CCCCCOC(=O)Nc1nc(=O)n([C@@H]2O[C@H](C)[C@@H](O)[C@H]2O)cc1F [Capecitabine]	10.65

Entry Cc1ccc(C(=O)N(CCCN)[C@@H](c2oc3cc(Cl)ccc3c(=O)c2Cc2ccccc2)C(C)C)cc1 [SB 743921] under human AspH (His6-AspH315–758) (Homo sapiens) had Plate 1-duplicate (% inhibition) of -30.32

// Plate 1-duplicate (% inhibition) (human AspH (His6-AspH315–758) (Homo sapiens)) for S=c1[nH]cnc2nc[nH]c12 [Mercaptopurine] = 10.69

Tested system human AspH (His6-AspH315–758) (Homo sapiens); Plate 1-duplicate (% inhibition) recorded for Cn1nnc2c(C(N)=O)ncn2c1=O [Temozolomide] was 8.46

* * *

We begin with a simple list: items and their reported Plate 1 (% inhibition).
# assayed.target: human AspH (His6-AspH315–758) (Homo sapiens, UniProt Q12797)
# Construct: N-Terminally His6-tagged human AspH315–758 (His6-AspH315–758) was produced in Escherichia coli BL21 (DE3) cells; made in house; host or cells: Escherichia coli BL21 (DE3), pET-28a(+) vector
# test.summary: SPE-MS AspH inhibition assay (hFX-CP101-119 substrate hydroxylation)
# Format: biochemical
# run.parameters: AspH-inhibitor screening, 384-well Plate 1
The answer is to be given in %; state only the numeric part.

> print(dat)
                              smiles.record  measured.result
1          Cn1cc(C[C@@H](N)C(=O)O)c2ccccc21             6.32
2  CC(C)C[C@H](NC(=O)[C@H](Cc1ccccc1)NC(=O)c1cnccn1)B(O)O             6.81
3  COc1cc(Nc2ncc3c(n2)-c2ccc(Cl)cc2C(c2c(F)cccc2OC)=NC3)ccc1C(=O)O             2.09

Short answer on human AspH (His6-AspH315–758) (Homo sapiens, UniProt Q12797) for Cc1nc(Nc2ncc(C(=O)Nc3c(C)cccc3Cl)s2)cc(N2CCN(CCO)CC2)n1 , Plate 1 (% inhibition): -20.82

Field Plate 1 (% inhibition) (system: human AspH (His6-AspH315–758) (Homo sapiens, UniProt Q12797)) for entry Cn1cnc2c(F)c(Nc3ccc(Br)cc3F)c(C(=O)NOCCO)cc21 = -1.29

* * *

Overview of recorded Plate 1 (% conversion) for various compounds
# assayed.target: human AspH (His6-AspH315–758) (Homo sapiens)
# Construct: N-Terminally His6-tagged human AspH315–758 (His6-AspH315–758) was produced in Escherichia coli BL21 (DE3) cells; made in house; host or cells: Escherichia coli BL21 (DE3), pET-28a(+) vector
# test.summary: SPE-MS AspH inhibition assay (hFX-CP101-119 substrate hydroxylation)
# Type: biochemical
# run.parameters: AspH-inhibitor screening, 384-well Plate 1, substrate conversion
Counter-ions that a name gives are not always drawn.
Unit % implied. Number only.

Value of Plate 1 (% conversion) reported for the compound Nc1ccn([C@@H]2O[C@H](CO)[C@@H](O)[C@@H]2O)c(=O)n1 [Cytarabine hydrochloride] is 48.76

compound Cn1cc(CNCC2CCN(c3ncc(C(=O)NO)cn3)CC2)c2ccccc21 , Plate 1 (% conversion) observed: 53.15

Lab note: measured Plate 1 (% conversion) of CC(C)C(=O)Nc1ccc([N+](=O)[O-])c(C(F)(F)F)c1 [Flutamide] was 49.60

For CCCS(=O)(=O)Nc1ccc(F)c(C(=O)c2c[nH]c3ncc(-c4ccc(Cl)cc4)cc23)c1F [Vemurafenib, reference compound] the compound record lists Plate 1 (% conversion) as 12.12

* * *

# assayed.target: human AspH (His6-AspH315–758) (Homo sapiens, UniProt Q12797)
# Construct: N-Terminally His6-tagged human AspH315–758 (His6-AspH315–758) was produced in Escherichia coli BL21 (DE3) cells; made in house; host or cells: Escherichia coli BL21 (DE3), pET-28a(+) vector
# test.summary: SPE-MS AspH inhibition assay (hFX-CP101-119 substrate hydroxylation)
# Format: biochemical
# run.parameters: AspH-inhibitor screening, 384-well Plate 1
metric: Plate 1 (% inhibition) (%)
Express your answer in %, writing the number without its unit.

> print(dat)
                                   compound  measured.result
1  c1ccc2c(CCNc3ccc(Nc4ccncc4)cc3)c[nH]c2c1 [JNJ 26854165 (Serdemetan)]            32.19
2  COc1cc2nccc(Oc3ccc(NC(=O)Nc4cc(C)on4)c(Cl)c3)c2cc1OC [AV-951 (Tivozanib)]            11.01

Consider the additional compound presented here.
Kindly note the recorded Plate 1 (% inhibition) for COc1ccc(S(=O)(=O)Nc2cccnc2Nc2ccc(O)cc2)cc1 [ABT-751] , which is 4.88

* * *

# assayed.target: human AspH (His6-AspH315–758) (Homo sapiens)
# Construct: N-Terminally His6-tagged human AspH315–758 (His6-AspH315–758) was produced in Escherichia coli BL21 (DE3) cells; made in house; host or cells: Escherichia coli BL21 (DE3), pET-28a(+) vector
# test.summary: SPE-MS AspH inhibition assay (hFX-CP101-119 substrate hydroxylation)
# Format: biochemical
# run.parameters: AspH-inhibitor screening, 384-well Plate 1, substrate conversion
Listed next: entries and their corresponding Plate 1 (% conversion).
// units = %; emit number, no label

Some molecules with known Plate 1 (% conversion) results, for comparison:
molecule	metric	value.unit	measured.result
Cc1c(C(=O)Nc2ccc(N3C[C@@H](C)O[C@@H](C)C3)nc2)cccc1-c1ccc(OC(F)(F)F)cc1.O=P(O)(O)O.O=P(O)(O)O [NVP-LDE225 (Diphosphate salt)]	Plate 1 (% conversion)	%	59.05
C=CCn1c(=O)c2cnc(Nc3ccc(N4CCN(C)CC4)cc3)nc2n1-c1cccc(C(C)(C)O)n1	Plate 1 (% conversion)	%	47.09
COc1cc2c(cc1O)CC[C@@H]1[C@@H]2CC[C@]2(C)[C@@H](O)CC[C@@H]12	Plate 1 (% conversion)	%	47.15

Attention now shifts to the item below.
Notebook: CC[C@H](C)C(=O)O[C@H]1C[C@H](O)C=C2C=C[C@H](C)[C@H](CC[C@@H](O)C[C@@H](O)CC(=O)O)[C@H]21 , Plate 1 (% conversion) read as 44.12
